TEST TARGET: ZAP-70 (Homo sapiens, UniProt P43403)
Construct: endogenous in cells
Sequence (P43403 whole entry): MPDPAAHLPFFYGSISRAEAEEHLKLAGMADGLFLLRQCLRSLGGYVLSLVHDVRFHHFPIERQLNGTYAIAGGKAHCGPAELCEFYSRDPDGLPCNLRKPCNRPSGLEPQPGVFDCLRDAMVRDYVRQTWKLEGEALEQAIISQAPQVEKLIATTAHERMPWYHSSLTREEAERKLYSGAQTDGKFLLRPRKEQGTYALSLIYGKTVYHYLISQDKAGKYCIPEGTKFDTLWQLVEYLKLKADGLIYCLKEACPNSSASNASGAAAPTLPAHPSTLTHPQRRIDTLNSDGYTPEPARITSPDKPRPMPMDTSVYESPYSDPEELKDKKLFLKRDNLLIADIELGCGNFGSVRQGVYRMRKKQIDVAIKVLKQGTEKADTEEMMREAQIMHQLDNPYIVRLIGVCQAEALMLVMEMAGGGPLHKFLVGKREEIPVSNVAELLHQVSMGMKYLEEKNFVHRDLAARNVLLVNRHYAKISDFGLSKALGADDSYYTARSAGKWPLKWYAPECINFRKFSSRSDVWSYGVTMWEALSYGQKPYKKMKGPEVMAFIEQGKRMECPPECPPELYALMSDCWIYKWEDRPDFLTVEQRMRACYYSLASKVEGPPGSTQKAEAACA
PROTOCOL DESCRIPTION: ZAP-70 kinobeads assay
PARTICULARS: competition with immobilized aminopyrido-pyrimidine ligand 24 in cell lysate; ZAP-70 detected by dot blot
pIC50: −log10 of the molar value.
RESULT TYPE: pIC50

COc1ccc(Nc2ncc(Br)c(Nc3ccccc3NS(C)(=O)=O)n2)cc1OC    > 7.00
CS(=O)(=O)Nc1ccccc1Nc1nc(Nc2cccc(F)c2)ncc1F    5.00 to 6.00
COc1cc(Nc2ncc(Cl)c(Nc3ccccc3NS(C)(=O)=O)n2)cc(OCC(C)C)c1OC    > 7.00
COc1cc(Nc2ncc(Br)c(Nc3ccccc3NS(C)(=O)=O)n2)ccc1C    6.00 to 7.00
CNCCS(=O)(=O)Nc1cccc(Nc2nc(Nc3cc(OC)c(OC)c(OC)c3)ncc2F)c1    6.00 to 7.00

Each of the following entries comes with a recorded value; kindly state pIC50 for each.
1. Cn1ccc(-c2cccc(Nc3ncc(F)c(Nc4ccccc4NS(C)(=O)=O)n3)c2)n1
2. COc1cc(Nc2ncc(F)c(Nc3ccccc3NS(C)(=O)=O)n2)cc(OC)c1OC
3. COc1cc(Nc2ncc(F)c(Nc3ccccc3NS(C)(=O)=O)n2)cc(OCCN2CCCC2)c1OC

-- reply
["5.00 to 6.00", "6.00 to 7.00", "6.00 to 7.00"]
